test: In vivo pharmacokinetics (rat), cassette dosing method; conditions: rat, plasma, po; cassette dosing perorally 10 mg/kg, male Wistar rats
recorded.endpoint: Tmax (h)

[[record]]
compound = "Oc1cccc(-c2ccc3cc(O)ccc3c2)c1 [Compound 19, 6-(3-Hydroxyphenyl)-2-naphthol]"
readout_value = 6

[[record]]
compound = "Oc1cccc(-c2ccc3c(-c4ccccc4)c(O)ccc3c2)c1 [Compound 56, 6-(3-Hydroxyphenyl)-1-phenyl-2-naphthol]"
readout_value = 4

[[record]]
compound = "CS(=O)(=O)Nc1cccc(-c2c(O)ccc3cc(-c4cccc(O)c4)ccc23)c1"
readout_value = 2

[[record]]
compound = "Oc1cccc(-c2ccc3c(-c4cccc(O)c4)c(O)ccc3c2)c1 [Compound 57, 1,6-Bis(3-hydroxyphenyl)naphthalene-2-ol]"
readout_value = 6

[[record]]
compound = "Nc1cccc(-c2c(O)ccc3cc(-c4cccc(O)c4)ccc23)c1"
readout_value = 2


###

target: UniProt:P14061; experiment: 17β-HSD1 test assay (recombinant protein from Sf9 insect cells, 3H-estrone/NADPH); format: biochemical; conditions: read-out: HSD1 100 nM (% inhibition); inhibitor 100 nM
Outcome: YES for inhibition at 0.1 µM of at least 50%; NO for anything lower.

[[record]]
compound = "O=C(Nc1ccccc1)c1c(O)ccc2cc(-c3cccc(O)c3)ccc12"
class_name = "NO"

[[record]]
compound = "OCc1ccc(-c2ccc3cc(O)ccc3c2)cc1 [Compound 11, 6-[4-(hydroxymethyl)phenyl]-2-naphthol]"
class_name = "NO"

[[record]]
compound = "O=C(NCCc1ccc(S(=O)(=O)Nc2cccc(-c3c(O)ccc4cc(-c5cccc(O)c5)ccc34)c2)cc1)C(F)(F)F"
class_name = "YES"

[[record]]
compound = "Oc1cccc(-c2cc3cc(O)ccc3[nH]2)c1 [Compound 1, 2-(3-Hydroxyphenyl)-1H-indol-5-ol]"
class_name = "NO"

[[record]]
compound = "CNC(=O)c1cc2cc(-c3cccc(O)c3)ccc2cc1O"
class_name = "NO"

[[record]]
compound = "Oc1cncc(-c2ccc3cc(O)ccc3c2)c1"
class_name = "NO"

[[record]]
compound = "O=C(Nc1cccc(O)c1)c1c(O)ccc2cc(-c3cccc(O)c3)ccc12"
class_name = "NO"

[[record]]
compound = "CSc1nccc(-c2ccc(S(=O)(=O)Nc3cccc(-c4c(O)ccc5cc(-c6cccc(O)c6)ccc45)c3)s2)n1"
class_name = "YES"

[[record]]
compound = "O=[N+]([O-])c1cccc(-c2ccc3cc(O)ccc3c2)c1"
class_name = "NO"

[[record]]
compound = "Oc1ccc2cc(-c3ccccc3O)ccc2c1 [Compound 18, 6-(2-Hydroxyphenyl)-2-naphthol]"
class_name = "NO"

[[record]]
compound = "O=C(Nc1ncccn1)c1c(O)ccc2cc(-c3cccc(O)c3)ccc12"
class_name = "NO"

[[record]]
compound = "Oc1cccc(-c2ccc3ccccc3c2)c1"
class_name = "NO"

[[record]]
compound = "Oc1cccc(-c2ccc3c(-c4cccc(O)c4)c(O)ccc3c2)c1 [Compound 57, 1,6-Bis(3-hydroxyphenyl)naphthalene-2-ol]"
class_name = "YES"

[[record]]
compound = "COC(=O)c1csc(S(=O)(=O)Nc2cccc(-c3c(O)ccc4cc(-c5cccc(O)c5)ccc34)c2)c1OC"
class_name = "YES"

[[record]]
compound = "O=C(O)CCC(=O)Nc1ccc(-c2c(O)ccc3cc(-c4cccc(O)c4)ccc23)cc1"
class_name = "NO"


###

inhibition at 0.1 µM reference
biological target: 17β-HSD1 (Homo sapiens (Human), UniProt P14061); experiment: 17β-HSD1 test assay (recombinant protein from Sf9 insect cells, 3H-estrone/NADPH); format: biochemical; conditions: read-out: HSD1 100 nM (% inhibition)
Sequence (P14061 whole entry): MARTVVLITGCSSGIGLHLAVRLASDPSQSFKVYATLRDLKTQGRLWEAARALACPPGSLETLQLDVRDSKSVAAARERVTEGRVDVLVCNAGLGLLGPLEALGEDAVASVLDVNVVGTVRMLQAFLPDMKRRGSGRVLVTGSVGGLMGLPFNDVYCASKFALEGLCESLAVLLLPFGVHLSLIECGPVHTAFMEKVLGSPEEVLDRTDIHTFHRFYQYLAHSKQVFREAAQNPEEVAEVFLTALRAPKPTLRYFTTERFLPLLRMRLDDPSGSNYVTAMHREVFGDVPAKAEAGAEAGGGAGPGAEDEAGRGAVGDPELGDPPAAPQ
recorded.endpoint: inhibition at 0.1 µM

[[record]]
smi = "Oc1cccc(-c2ccc3c(-c4cccnc4)c(O)ccc3c2)c1"
readout_value = "87.4%"

[[record]]
smi = "Oc1cccc(-c2ccc3c(-c4ccncc4)c(O)ccc3c2)c1"
readout_value = "74.4%"

[[record]]
smi = "CS(=O)(=O)Nc1cccc(-c2c(O)ccc3cc(-c4cccc(O)c4)ccc23)c1"
readout_value = "88.1%"

[[record]]
smi = "Oc1cccc(-c2ccc3c(-c4ccoc4)c(O)ccc3c2)c1"
readout_value = "83%"

